Numbers sourced from the supplement of paper PMC6555819.

- Test system: PXR homodimer (NR concentration 270 nM)
- assayComment: PBM binding z-score (relative to random genomic background probes); higher = stronger binding; sequences stand for … in GC…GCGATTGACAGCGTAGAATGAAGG
measurementName: PBM binding z-score
Answers are plain numbers.

// solved cases for PBM binding z-score follow
Task: Please indicate PBM binding z-score recorded for `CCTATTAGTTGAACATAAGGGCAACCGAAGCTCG`
Result: 0.963

Task: Please indicate PBM binding z-score recorded for `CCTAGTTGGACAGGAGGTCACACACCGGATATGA`
Result: 1.32

Task: Please indicate PBM binding z-score recorded for `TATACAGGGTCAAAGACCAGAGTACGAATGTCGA`
Result: 0.419

Task: Please indicate PBM binding z-score recorded for `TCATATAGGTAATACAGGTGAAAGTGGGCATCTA`
Result: 0.455

Task: Please indicate PBM binding z-score recorded for `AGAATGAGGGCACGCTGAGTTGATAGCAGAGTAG`
Result: 0.452

---
Task: Please indicate PBM binding z-score recorded for `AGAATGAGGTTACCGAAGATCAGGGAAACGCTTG`
Result: -0.388
